TGI values by entry
system: HS 578T breast; experiment: NCI tumour cell line growth inhibition, 48 h

See these solved cases before continuing.
# compound, tgt, experimental-endpoint, result
records = [
    ("CCOC(=O)C(/C=N\\C(=S)Nc1ccc(OCC)cc1)=C(/O)c1ccccc1", "HS 578T breast", "TGI", "> 100 µM"),
    ("O=C1c2cccc3cccc(c23)C(=O)N1CCCNOCCONCCCN1C(=O)c2cccc3cccc(c23)C1=O", "HS 578T breast", "TGI", "> 100 µM"),
    ("Cc1ccc(C(=O)/C(C#N)=C/Nc2c(C)n(C)n(-c3ccccc3)c2=O)cc1", "HS 578T breast", "TGI", "> 100 µM"),
    ("O=C1C(Br)=C(c2ccccc2)S(=O)c2ccccc21 (configuration not stated)", "HS 578T breast", "TGI", "80.6 µM"),
    ("O=Cc1ccc(-c2cccs2)s1", "HS 578T breast", "TGI", "98 µM"),
]

Item CCC(c1cccc(O)c1)C(CC)c1cccc(O)c1 (configuration not stated) has what recorded TGI?
9.77 µM

Field entry: CC1(C)Oc2ccc(NC(=O)CCC(N)C(=O)O)cc2O1 (configuration not stated)
> 100 µM

Field entry: "CC(=O)c1cc2c(s1)C(=O)c1ccccc1C2=O"
> 67.6 µM

Field entry: "c1nnc(NCNc2nncs2)s1"
> 100 µM

---

system: KM12 colon; assay: NCI tumour cell line growth inhibition, 48 h
experimental-endpoint: TGI

See these solved cases before continuing.
# compound, tgt, TGI
data = [
    ("COc1ccccc1Nc1nc(NNC(=O)Cc2ccccc2)nc(NNC(=O)c2ccncc2)n1", "KM12 colon", "> 10 µM"),
    ("COc1ccc(C2CC(n3nnnc3-c3ccccc3)=NN2)cc1 (stereo unspecified)", "KM12 colon", "13.6 µM"),
    ("O=c1[nH]nc(Cc2ccccc2)n1-n1cnnc1", "KM12 colon", "> 100 µM"),
    ("COC(=O)c1c(-c2ccccc2)sc(-c2cccc3ccccc23)c1C(=O)OC", "KM12 colon", "> 100 µM"),
    ("CC(=O)OCC=C(CCl)CCC(Br)C(C)(C)Br (mixture of isomers)", "KM12 colon", "> 10 µM"),
]

Next item in the queue.
Item "COc1ccc2c(c1)/c(=C/c1ccc(N(C)C)cc1)c1cc(-c3ccccc3)[n+](C)n12" has what recorded TGI?
1.71 µM

---

GI50 values by entry
tested on: MCF7 breast; assay: NCI tumour cell line growth inhibition, 48 h

See these solved cases before continuing.
# molecule, tgt, experimental-endpoint, result
data = [
    ("Oc1ccccc1-c1nc2c3ccccc3c3ccccc3c2[nH]1", "MCF7 breast", "GI50", "1.99 µM"),
    ("Cc1cc(-c2nnc3n2CCCCC3)c(C)n1-c1ccc(Cl)c(Cl)c1", "MCF7 breast", "GI50", "4.89 µM"),
    ("N#C[C@@H]1C(n2ccc(N)nc2=O)O[C@H](CO)[C@H]1O (stereo not given in full)", "MCF7 breast", "GI50", "0.993 µM"),
    ("CCOc1c(Cl)cc(CNC(C)C(O)c2ccccc2)cc1OC (stereo not given)", "MCF7 breast", "GI50", "17.8 µM"),
]

Next item in the queue.
Item "CC(C)(C)NC(=O)[C@H]1C[C@H]2CCCC[C@H]2CN1C[C@@H](O)[C@H](Cc1ccccc1)NC(=O)[C@H](CC(N)=O)NC(=O)c1ccc2ccccc2n1" has what recorded GI50?
19.1 µM

---

system: SK-MEL-2 melanoma; assay: NCI tumour cell line growth inhibition, 48 h
experimental-endpoint: TGI

See these solved cases before continuing.
# structure, TGI
measured = [
    ("CC(C)(C)NC(=O)[C@H]1C[C@H]2CCCC[C@H]2CN1C[C@@H](O)[C@H](Cc1ccccc1)NC(=O)[C@H](CC(N)=O)NC(=O)c1ccc2ccccc2n1", "> 65.7 µM"),
    ("COc1ccc2c(c1)[n+]([O-])c(/C(C)=N/NC(=O)CC#N)c[n+]2[O-]", "> 100 µM"),
    ("O=c1ccc(=O)c2c(=O)c3ccccc3c(=O)c1=2", "> 100 µM"),
]

Item "Cc1ccc(-c2n[nH]c(=O)[nH]2)cc1[N+](=O)[O-]" has what recorded TGI?
> 100 µM

Field entry: "C[n+]1c2ccccc2c(C(=O)Nc2ccc(S(=O)(=O)N=C(N)N)cc2)c2ccccc21"
> 100 µM

Field entry: "COc1cccc(-c2cc(=O)c3ccc(C)nc3[nH]2)c1"
> 100 µM

---

test system: UACC-257 melanoma; assay: NCI tumour cell line growth inhibition, 48 h; in the data active = GI50 below about 0.43 µM; inactive = the rest
The categories you may choose from are active, inactive

Reference set (2 entries):
# molecule, class-label
measured = [
    ("C[C@]12CC[C@@H]3c4ccc(O)cc4C(O)C[C@H]3[C@@H]1CCC2=O (some centres undefined)", "inactive"),
    ("C/C(=N\\NC(N)=S)c1nc2ccc(Cl)cc2[nH]1", "inactive"),
]

Please share the test call associated with "CC(=O)Nc1ccc(S(=O)(=O)NNC(=O)c2cccnc2Nc2ccc(Cl)cc2)cc1" .
inactive

Field entry: COc1ccc(C2CC(n3nnnc3-c3ccccc3)=NN2)cc1 (centres undefined)
inactive

---

TGI values by entry
tested on: MOLT-4 leukemia; assay: NCI tumour cell line growth inhibition, 48 h

See these solved cases before continuing.
# compound, TGI
data = [
    ("O=C(N[C@H]1c2ccsc2/C(=N/O)[C@H]1O)C(F)(F)F", "> 100 µM"),
    ("[N-]=[N+]=Nc1ccc(CNc2cc(=O)[nH]c(=O)[nH]2)cc1", "> 100 µM"),
    ("CCCCOCn1c(=O)[nH]c(=O)c2cc(Br)ccc21", "> 100 µM"),
    ("COC(=O)C1=C(CS(=O)c2ccccc2[N+](=O)[O-])ON(C)C1c1ccccc1 (centres undefined)", "> 100 µM"),
    ("Cc1cc2c(=O)c3ccccc3[nH]c2c(C(=O)O)c1C", "> 100 µM"),
]

Find TGI (MOLT-4 leukemia) for the entry "C/C(O)=C/c1nc2ccc([N+](=O)[O-])cc2nc1/C=C(/C)O"
72.2 µM

Field entry: "CNC(=S)N/N=C/c1ccc([N+](=O)[O-])s1"
> 10 µM

Field entry: CC(C)N(C)C(=O)C12C3C4C1C1C2C3C41C#N (centres undefined)
> 100 µM

Field entry: "C[N+]1(C)C/C(=C\c2ccncc2)C(=O)/C(=C/c2ccncc2)C1"
> 100 µM

---

tested on: MDA-N; test: NCI tumour cell line growth inhibition, 48 h
experimental-endpoint: TGI

# compound, experimental-endpoint, result
rows = [
    ("O=S1(=O)c2ccccc2NC(=S)CC1c1ccccc1 (centres undefined)", "TGI", "> 100 µM"),
    ("C[N+](C)(C)c1ncnc2c1ncn2C1CCCCO1 (centres undefined)", "TGI", "> 100 µM"),
]

Find TGI (MDA-N) for the entry "O=C1c2cccc3cccc(c23)C(=O)N1CCCNOCCONCCCN1C(=O)c2cccc3cccc(c23)C1=O"
> 100 µM

Field entry: "COc1ccccc1Nc1nc(NNC(=O)Cc2ccccc2)nc(NNC(=O)c2ccncc2)n1"
> 10 µM

---

system: HCT-116 colon; test: NCI tumour cell line growth inhibition, 48 h; in the data active = GI50 below about 0.43 µM; inactive = the rest
The categories you may choose from are 1 (active), 0 (inactive)

Reference set (3 entries):
# molecule, class-label
records = [
    ("O=C1CCCN1CC#CCN1CCCC1", 0),
    ("NC(=O)c1ccc(C2C3=C(CCCC3=O)OC3=C2C(=O)c2ccccc2C3=O)cc1 (centres undefined)", 1),
    ("COc1cc(S(C)(=O)=O)ccc1Nc1nc2ccc(-c3ccc(NC(=O)[C@H](C)c4ccc(F)cc4)cc3)cn2n1", 1),
]

Could you now look at the following molecule, please?
Please share the test call associated with "Cc1ccc(NC(=O)Cn2c(Br)nc3c2c(=O)n(C)c(=O)n3C)cc1" .
0

---

TGI values by entry
test system: SF-268 CNS; experiment: NCI tumour cell line growth inhibition, 48 h

See these solved cases before continuing.
# molecule, experimental-endpoint, result
measured = [
    ("O=C1C(Br)=C(c2ccccc2)S(=O)c2ccccc21 (stereo unspecified)", "TGI", "36.5 µM"),
    ("C[C@]12CC[C@@H]3c4ccc(O)cc4C(O)C[C@H]3[C@@H]1CCC2=O (stereo partly specified)", "TGI", "> 100 µM"),
    ("CC(C)N(C)C(=O)C12C3C4C1C1C2C3C41C#N (stereo unspecified)", "TGI", "> 100 µM"),
    ("O=C1c2cccc3cccc(c23)C(=O)N1CCCNOCCONCCCN1C(=O)c2cccc3cccc(c23)C1=O", "TGI", "> 100 µM"),
]

Item "O=C1/C(=C2\Sc3c(ccc(Cl)c3Cl)C2=O)Sc2c1ccc(Cl)c2Cl" has what recorded TGI?
> 100 µM

Field entry: "CSC1=NS(=O)(=O)c2cc(C(=O)NN(C)C(=O)c3cc4c(cc3Cl)SC(SC)=NS4(=O)=O)c(Cl)cc2S1"
> 10 µM
